# tgt: β-secretase(BACE) (Homo sapiens)
# Construct: purchased Panvera
# Sequence (P56817 46-501): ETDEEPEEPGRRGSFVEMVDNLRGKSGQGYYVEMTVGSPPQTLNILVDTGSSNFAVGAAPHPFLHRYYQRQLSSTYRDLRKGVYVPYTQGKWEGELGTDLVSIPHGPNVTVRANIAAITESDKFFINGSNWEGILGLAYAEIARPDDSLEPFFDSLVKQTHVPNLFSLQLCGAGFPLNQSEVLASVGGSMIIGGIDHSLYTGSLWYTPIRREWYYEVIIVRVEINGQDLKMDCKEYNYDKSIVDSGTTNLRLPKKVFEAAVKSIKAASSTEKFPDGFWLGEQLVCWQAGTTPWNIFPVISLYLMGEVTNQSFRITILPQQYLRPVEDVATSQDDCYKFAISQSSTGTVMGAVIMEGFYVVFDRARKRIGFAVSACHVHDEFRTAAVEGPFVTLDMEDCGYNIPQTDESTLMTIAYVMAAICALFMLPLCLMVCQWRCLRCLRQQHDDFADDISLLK
# measurement_notes: BACE Assay-1 (MCA-substrate, IC50)
# Format: biochemical
# measurement_conditions: procedure of Example 158; read-out: IC50 μM (158)
test_readout: IC50 (µM)

Solved entries:
CCCN1Cc2cc(Oc3cccc(NC(=O)CCCC(=O)N(C)C4CCCCC4)c3)ccc2N=C1N [Compound 755] ... 0.21
CCCN1Cc2cc(Oc3cccc(NS(=O)(=O)c4ccc5ccccc5c4)c3)ccc2N=C1N [Compound 244] ... 2.1
Cc1cc(C)c(S(=O)(=O)Nc2cccc(Oc3ccc4c(c3)CN(CCCCCO)C(N)=N4)c2)c(C)c1 [Compound 383] ... 0.65
CCN(C(=O)CCN1Cc2cc(C(=O)c3ccccc3)ccc2N=C1N)C1CCCCC1 [Compound 3] ... 4
CN(C(=O)CCN1Cc2cc(C(=O)c3ccc(F)cc3)ccc2N=C1N)C1CCCCCC1 [Compound 5] ... 5.1
CC(C)(C)OC(=O)N1CCC(CN2Cc3cc(Oc4cccc(NS(=O)(=O)c5ccccc5)c4)ccc3N=C2N)CC1 [Compound 384] ... 0.13
CC(C)C(=O)NCCN1Cc2cc(Oc3ccccc3)ccc2N=C1N [Compound 121] ... 0.58
CC(C)(C)OC(=O)NCCN1Cc2cc(Oc3ccccc3)ccc2N=C1N [Compound 80] ... 0.11

[P] CCCN1Cc2cc(Sc3cccc(NS(=O)(=O)c4c(C)cc(C)cc4C)c3)ccc2N=C1N [Compound 497]
[Q] NC1=Nc2ccc(Oc3ccccc3)cc2CN1C(CCNC(=O)C1CCCC1)C1CCCCC1 (stereo not shown) [Compound 392]
[R] CCCN1Cc2cc(Oc3cccc(NCc4c(OC)cccc4OC)c3)ccc2N=C1N [Compound 501]
[S] NC1=Nc2ccc(Oc3ccccc3)cc2CN1CCNC(=O)NC1CCCCC1 [Compound 215]
Q) Would you mind ranking these compounds by ascending IC50? # the answer lists labels in the order requested
A) P, Q, S, R
(P: 0.011 µM, Q: 0.093 µM, S: 0.23 µM, R: 3.4 µM)
